System: T1, human ADAMTS5 (human, UniProt Q9UNA0 262-622, limits assumed)
T1 construct: Octet and ELISA used 'recombinant human ADAMTS5'; also called recombinant human ADAMTS5; ADAMTS5 (R&D Systems 2198-AD)
T1 sequence: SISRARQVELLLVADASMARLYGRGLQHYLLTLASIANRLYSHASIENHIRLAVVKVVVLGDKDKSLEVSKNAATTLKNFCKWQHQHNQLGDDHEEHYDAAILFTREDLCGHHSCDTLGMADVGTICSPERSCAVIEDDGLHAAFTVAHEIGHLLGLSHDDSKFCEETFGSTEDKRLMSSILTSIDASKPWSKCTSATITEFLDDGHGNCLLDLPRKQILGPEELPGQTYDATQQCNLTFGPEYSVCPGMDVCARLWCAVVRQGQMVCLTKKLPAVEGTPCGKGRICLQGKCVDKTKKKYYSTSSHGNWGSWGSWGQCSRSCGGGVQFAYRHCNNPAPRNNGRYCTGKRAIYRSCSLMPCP
Assay Name: Biacore, mAb from culture supernatant captured on anti-human IgG, ADAMTS5 (R&D 2198-AD) at 64 nM, 1:1 fit
Measurement Kind: Kd (nM)
# number only, unit nM dropped from output

Field: example entries. Status: answers known.
BPC1647 (antibody, human IgG1, kappa, V domains shown, Humanized, human gamma 1 / kappa; also called 7B4 H6L1) VH: EVQLVESGGGLVQPGGSLRLSCAASGFTSSDAWMDWVRQAPGKGLEWVAEIRNKANNHARHYAESVKGRFTISRDDAKNSVYLQMNSLRAEDTAVYYCTRTYYYGSSYGYCDVWGQGTLVTVSS VL: DIQMTQSPSSLSASVGDRVTITCRTSENIYSYLAWYQQKPGKAPKLLVYNAKTLAEGVPSRFSGSGSGTDFTLTISSLQPEDFATYYCQHHYGTPWTFGQGTKLEIKR
0.978
BPC1644 (antibody, human IgG1, kappa, V domains shown, Humanized, human gamma 1 / kappa; also called 7B4 H3L1) VH: EVQLVESGGGLVQPGGSLRLSCAASGFTSSDAWMDWVRQAPGKGLEWVAEIRNKANNHARHYAESVKGRFTISRDNAKNSLYLQMNSLRAEDTAVYYCTRTYYYGSSYGYCDVWGQGTLVTVSS VL: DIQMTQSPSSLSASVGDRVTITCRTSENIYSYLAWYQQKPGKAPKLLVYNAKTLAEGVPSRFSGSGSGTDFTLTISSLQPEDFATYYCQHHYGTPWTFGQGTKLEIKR
1.05
BPC1640 (antibody, human IgG1, kappa, V domains shown, Humanized, human gamma 1 / kappa; also called 7B4 H6L0) VH: EVQLVESGGGLVQPGGSLRLSCAASGFTSSDAWMDWVRQAPGKGLEWVAEIRNKANNHARHYAESVKGRFTISRDDAKNSVYLQMNSLRAEDTAVYYCTRTYYYGSSYGYCDVWGQGTLVTVSS VL: DIQMTQSPSSLSASVGDRVTITCRTSENIYSYLAWYQQKPGKAPKLLIYNAKTLAEGVPSRFSGSGSGTDFTLTISSLQPEDFATYYCQHHYGTPWTFGQGTKLEIKR
1.08

**Query** Consider the binder BPC1622 (antibody, human IgG1, kappa, V domains shown, Chimeric: murine variable domains on human gamma 1 and kappa constant regions; also called 7B4 Chimera; Chimeric 7B4.1E11) VH: EVKLEESGGGLVQPGGSMKLSCAASGFTSSDAWMDWVRQSPEKGLEWVAEIRNKANNHARHYAESVKGRFTISRDDSKSSVYLQMNSLRAEDSGIYYCTRTYYYGSSYGYCDVWGTGTLVTVSS VL: DIQMTQSPASLSASVGETVTITCRTSENIYSYLAWYQQKQGKSPQLLVYNAKTLAEGVPSRFSGSGSGTQFSLKINSLQPEDFGSYSCQHHYGTPWTFGGGTKLEIKR and give its measured Kd.
**Result** 1.12

**Query** Dear colleague, I am looking for the recorded Kd of the following binder: BPC1638 (antibody, human IgG1, kappa, V domains shown, Humanized, human gamma 1 / kappa; also called 7B4 H4L0) VH: EVQLVESGGGLVQPGGSLRLSCAASGFTSSDAWMDWVRQAPGKGLEWVAEIRNKANNHARHYAESVKGRFTISRDDAKNSLYLQMNSLRAEDTAVYYCTRTYYYGSSYGYCDVWGQGTLVTVSS VL: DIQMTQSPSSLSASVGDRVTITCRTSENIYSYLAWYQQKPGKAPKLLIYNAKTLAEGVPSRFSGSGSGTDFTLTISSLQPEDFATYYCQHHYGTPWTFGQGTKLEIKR
**Result** 0.95

Where do the numbers come from? From patent US20120095193A1.
